# Test system: PR-1a protein
# Experiment summary: Induction and quantification of PR-1a protein after leaf infiltration of tobacco
# Type: in vivo, Nicotiana tabacum (Xanthi nc)
# Test context: leaf infiltration
# Experimental: Tobacco (Nicotiana tabacum) plants (Xanthi nc) were grown in Promix PGX at 25 C and a 16/8 h photoperiod. Plants were fed a 1 g/L concentration of 20-20-20 (N-P-K fertilizer) twice a week. The Xanthi-nc variety carries the N-gene for resistance to TMV. […] All harvests were performed 96 hours after infiltration unless indicated. […] Protein concentrations of extracellular fluids were determined by Bradford dye reagent (BioRad, Richmond, Calif.) used BSA as a standard. […]

{"Compound": "O=C(O)c1cccc([N+](=O)[O-])c1O [3-Nitrosalicylic acid]", "PR-1a induction, result in words": "decreased activity"}
{"Compound": "O=C(O)c1cc([N+](=O)[O-])ccc1O [5-Nitrosalicylic acid]", "PR-1a induction, result in words": "decreased activity"}

* * *

PR-1a protein following treatment, 96 h by entry:
# Test system: PR-1a protein
# Experiment summary: Induction and quantification of PR-1a protein after leaf infiltration of tobacco
# Format: in vivo, Nicotiana tabacum (Xanthi nc)
# Test context: 1 mM; 96 h; compared to 1 mM SA at 96 h, which equals 1
# print the numeric value only

These recorded examples may help you get a feel for the data.
{"Compound": "O=C(O)c1cc(F)ccc1O", "Target": "PR-1a protein", "Result value": 1.30}
{"Compound": "O=C(O)c1cc(Cl)ccc1O [5-Chlorosalicylic acid, reference compound]", "Target": "PR-1a protein", "Result value": 1.02}
{"Compound": "O=C(O)c1cc(F)cc(F)c1O", "Target": "PR-1a protein", "Result value": 3.64}
{"Compound": "O=C(O)c1cc(Cl)cc(Cl)c1O [3,5-Dichlorosalicylic acid, reference compound]", "Target": "PR-1a protein", "Result value": 1.83}

Now look at this entry.
Quick check: PR-1a protein following treatment, 96 h on PR-1a protein, item O=C(O)c1ccccc1O [Salicylic acid, reference compound] ? 1.00

* * *

The following compounds are shown together with reported Percent decrease in TMV-lesion diameter values.
# Test system: tobacco mosaic virus (TMV)
# Experiment summary: Resistance measurement: TMV lesion diameter after spray application
# Type: in vivo, Nicotiana tabacum (Xanthi nc)
# Test context: percent reduction in the diameter of TMV lesions
Numeric only. Scale: %

{"Compound": "O=C(O)c1cccc(Cl)c1O [3-Chlorosalicylic acid]", "Percent decrease in TMV-lesion diameter / %": 55.1}

Look up Percent decrease in TMV-lesion diameter for this compound: O=C(O)c1cccc(F)c1O [3-Fluorosalicylic acid] 34.4

How about O=C(O)c1c(O)c(Cl)cc(Cl)c1O [3,5-Dichloro-6-hydroxysalicylic acid] ? 48.3

Another compound to check: O=C(O)c1cc(Cl)cc(Cl)c1O [3,5-Dichlorosalicylic acid, reference compound] 36.6

O=C(O)c1cc(Cl)cc(F)c1O [3-Fluoro-5-chlorosalicylic acid] ? 47.4

Would you mind doing O=C(O)c1cc(F)cc(F)c1O [3,5-Difluorosalicylic acid] as well? 55.0

Repeat with COc1cccc(O)c1C(=O)O [6-Methoxysalicylic acid] 13.3

Okay, and O=C(O)c1c(O)cccc1F [6-Fluorosalicylic acid] ? 24.3

* * *

# Test system: tobacco mosaic virus (TMV)
# Experiment summary: Resistance measurement: TMV lesion diameter after spray application
# Type: in vivo, Nicotiana tabacum (Xanthi nc)
# Test context: percent reduction in the diameter of TMV lesions
Below, each entry is listed with its recorded Percent decrease in TMV-lesion diameter.
Your answer is read as %, so omit the unit and give the number.

{"Compound": "COc1ccc(C(=O)O)c(O)c1", "Target": "tobacco mosaic virus (TMV)", "Uom": "%", "Percent decrease in TMV-lesion diameter": 17.6}
{"Compound": "O=C(O)c1ccc(Cl)cc1O [4-Chlorosalicylic acid, reference compound]", "Target": "tobacco mosaic virus (TMV)", "Uom": "%", "Percent decrease in TMV-lesion diameter": 30.2}
{"Compound": "O=C(O)c1ccc(F)cc1O", "Target": "tobacco mosaic virus (TMV)", "Uom": "%", "Percent decrease in TMV-lesion diameter": 36.2}
{"Compound": "O=C(O)c1cc(Cl)ccc1O [5-Chlorosalicylic acid, reference compound]", "Target": "tobacco mosaic virus (TMV)", "Uom": "%", "Percent decrease in TMV-lesion diameter": 38.7}

Kindly review the next compound as well.
If you can, please state the reported Percent decrease in TMV-lesion diameter value of `O=C(O)c1cc(F)ccc1O` . 38.0

The origin of these recorded values is patent US20050050587A1.
